# EXPERIMENT: Drug repurposing screens with cells derived from glioblastoma tumor samples (AID 1345199); also: % is scaled to controls: 0 for no effect and ±100 for the full control effect; nearly all actives have a fitted effect of over 40% in size
# DETAILS: GBM patient neurospheres viability, ATP luminescence, 48 h; at 45.9 µM (top of the series); tumour line D
Results filed as inconclusive are left out.
VALUE_KIND: activity, negative = cell killing (%)
Note: unit % is implicit; provide only the numeric part.

Worked examples, 2 molecules total:
CCOC(=O)CN[C@@H](C(=O)N1CC[C@H]1C(=O)NCc1ccc(/C(N)=N/O)cc1)C1CCCCC1 = -14.5
CCOC(=O)CCC(=O)O[C@H]1[C@H](O[C@@H]2[C@@H](C)[C@H](O[C@H]3C[C@@](C)(OC)[C@@H](O)[C@H](C)O3)[C@@H](C)C(=O)O[C@H](CC)[C@@](C)(O)[C@H](O)[C@@H](C)C(=O)[C@H](C)C[C@@]2(C)O)O[C@H](C)C[C@@H]1N(C)C = -16.9

INPUT: Please look up its activity, negative = cell killing: C/C1=C2N=C(/C=C3N=C(/C(C)=C4\[N-]C(C(CC(N)=O)C4(C)CCC(=O)NCC(C)OP(=O)([O-])OC4C(CO)OC(n5cnc6cc(C)c(C)cc65)C4O)C4(C)N=C1C(CCC(N)=O)C4(C)CC(N)=O)C(CCC(N)=O)C\3(C)C)C(CCC(N)=O)C/2(C)CC(N)=O.[CH3-].[Co+3] (stereo not drawn)
OUTPUT: -36.9

* * *

# EXPERIMENT: Confirmatory screen GU Rhodamine qHTS for Zika virus inhibitors qHTS (AID 1347157); also: nearly all actives have a fitted effect of over 70% in size
# DETAILS: purified enzyme assay, Rhodamine110 substrate fluorescence, 15 min; series mostly up to 114 µM
Results filed as inconclusive are left out. Activity calls are given as the source filed them. Calls follow the shape of the dose curve; as a rule, active = well fitted inhibition curve with a large enough effect; inconclusive = small, poorly fitted or top-dose-only effect; inactive = flat fitted curve, though single readings scatter.
Hi! Could you answer with just one of these? active, inactive

Example entries begin here.
O=C(CNC(=O)c1ccccc1)OC(C(=O)Nc1cc(C(F)(F)F)ccc1Cl)c1ccccc1 (stereo not given) = inactive
O=c1c(O)cc(C2Oc3cc(O)cc(O)c3CC2O)cc2c(C3Oc4cc(O)cc(O)c4CC3O)cc(O)c(O)c12 (stereo not given) = active
O=C(O)c1ccc(NS(=O)(=O)c2ccc(Cl)c(C(=O)Nc3ccccc3)c2)cc1 = inactive
CC(C)c1nn2c(=O)cc(COC(=O)c3cccc(NC(=O)c4ccccc4F)c3)nc2s1 = inactive
CCOC(=O)c1ccc(N2C(=O)c3n[nH]c(-c4cccs4)c3C2c2ccc(Cl)cc2Cl)cc1 (stereo not given) = active

For the next question, use this compound.
INPUT: Hi team, can someone confirm the assay call for CC(C)(O)c1ccccc1CC[C@H](SCC1(CC(=O)O)CC1)c1cccc(/C=C/c2ccc3ccc(Cl)cc3n2)c1 ?
OUTPUT: active

* * *

# EXPERIMENT: AP1 Signaling Pathway (AID 357);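 also: ME-180 reporter cells stimulated with EGF at its EC50 level; % is scaled to controls: 0 for no effect and ±100 for the full control effect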
# DETAILS: ME-180 (cervical carcinoma) AP-1-bla reporter, EGF-induced, beta-lactamase ratio, 5 h; at 17.2 µM (top of the series)
Inconclusive results are not listed.
Collected activity change, negative = inhibition values appear next to each entry.
Note: unit % is implicit; provide only the numeric part.

Worked examples, 8 compounds total:
C=C[C@H](N)CCC(=O)O = -1.55
COc1ccccc1N1CCN(C[C@@H](O)COc2cccc3ccccc23)CC1 = 4.94
CC(=O)Nc1ccc(OC[C@@H](O)CNC(C)C)cc1 = 5.39
C[C@@H]([C@H](O)c1ccc(O)cc1)N1CCC(Cc2ccccc2)CC1 = -4.89
CC(C)(C)NC[C@H](O)c1ccc(O)c(CO)c1 = -9.06
CCOC(=O)CCC(=O)O[C@H]1[C@H](O[C@@H]2[C@@H](C)[C@H](O[C@H]3C[C@@](C)(OC)[C@@H](O)[C@H](C)O3)[C@@H](C)C(=O)O[C@H](CC)[C@@](C)(O)[C@H](O)[C@@H](C)C(=O)[C@H](C)C[C@@]2(C)O)O[C@H](C)C[C@@H]1N(C)C = -0.678
CNC(=O)Oc1ccc2c(c1)[C@@]1(C)CCN(C)[C@@H]1N2C = -5.3
CSc1ccc2c(c1)[C@H](N1CCN(C)CC1)Cc1ccccc1S2 = 22.7

Could you now look at the following compound, please?
INPUT: Please look up its activity change, negative = inhibition: CN(C)C/C=C(\c1ccc(Br)cc1)c1cccnc1
OUTPUT: 4.78

* * *

# TARGET_SYSTEM: Nuclear receptor subfamily 1 group I member 3 (Homo sapiens) (UniProt Q14994)
# Sequence (Q14994 whole entry, looked up): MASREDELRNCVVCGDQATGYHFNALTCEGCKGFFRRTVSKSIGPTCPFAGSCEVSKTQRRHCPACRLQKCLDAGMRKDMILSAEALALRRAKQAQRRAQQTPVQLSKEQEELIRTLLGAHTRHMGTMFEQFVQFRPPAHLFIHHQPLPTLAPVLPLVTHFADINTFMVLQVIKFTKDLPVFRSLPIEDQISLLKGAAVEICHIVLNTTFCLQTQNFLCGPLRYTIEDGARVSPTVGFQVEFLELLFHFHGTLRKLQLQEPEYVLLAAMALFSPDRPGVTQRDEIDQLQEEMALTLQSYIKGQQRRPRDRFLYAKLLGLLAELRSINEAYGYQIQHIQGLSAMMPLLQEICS
# EXPERIMENT: qHTS for Constitutive Androstane Receptor (CAR) Agonist screened against the NCATS CANVASS Library (AID 1347373);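 also: every well also contained 1.5 µM PK11195 alongside the test compound; 0% is about no effect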
# DETAILS: HepG2-hCAR-CYP2B6 luciferase reporter, ONE-Glo luminescence; series mostly up to 46.1 µM
# From the text: Natural products and their derivatives continue to be wellsprings of nascent therapeutic potential. […] To address this issue, the Canvass library of natural products was assembled (https://tripod.nih.gov/canvass), in collaboration with academic and industry researchers, for quantitative high-throughput screening (qHTS) across a diverse set of cell-based and biochemical assays. […]
Inconclusive results are not listed. The source made the active and inactive calls. Calls follow the shape of the dose curve; as a rule, active = well fitted activation curve with a large enough effect; inconclusive = small, poorly fitted or top-dose-only effect; inactive = no such curve, though single readings can be large or run the other way.
VALUE_KIND: activation

CO[C@@H]1[C@H](O)[C@@H](C)O[C@@H](OC[C@H]2/C=C/C=C/C(=O)C(C)C[C@H](C)C(O[C@@H]3O[C@H](C)CC4(OC(=O)O[C@@H]4C)C3O)[C@@H](C)/C=C/C(=O)OC2C)[C@@H]1OC (stereo partly drawn) = inactive
C/C(=C\[C@H](C)C(=O)CCCC1CC(=O)NC(=O)C1)C(O)[C@@H](C)[C@H](O)C/C=C/CC/C=C/C(=O)O (stereo partly drawn) = inactive
C=C1C[C@@]23C=CC(=O)[C@@](C)(CCCC(C)C(=O)O)[C@@H]2C[C@@H]1CC3 (stereo partly drawn) = inactive

* * *

# EXPERIMENT: qHTS drug screen for cell cycle checkpoint inhibitors in PARPi-resistant BRCA-mutant ovarian cancer cell lines. (AID 1963452)
# DETAILS: PEO1/OlaR viability, CellTiter-Glo luminescence, 96 h; stronger effect = lower value
Under this convention, Satisfied denotes Z-AUC strictly below 0.5 and Not satisfied denotes Z-AUC at or above 0.5.

Example entries begin here.
O=c1sn(-c2cccc3ccccc23)c(=O)n1Cc1ccccc1 = Satisfied
O=c1c(-n2ccnn2)c[nH]n1-c1cc(N2CCOCC2)ncn1 = Not satisfied
CN1CCC(c2c(O)cc(O)c3c(=O)cc(-c4ccccc4Cl)oc23)C1CO (stereo unspecified) = Satisfied
N#Cc1ccc(-c2c(-c3ncn[nH]3)sc(N3CCOCC3)c2C#N)c(F)c1 = Satisfied
CNCCN(C)Cc1cn[nH]c1-c1ccc(OC2CC(OCCC3CCOCC3)C2)cc1 (stereo unspecified) = Satisfied
C[C@H]1COCCN1c1cc(C2(S(=O)(=O)C3CC3)CC2)nc(-c2ccc(NC(=S)NCCO)cc2)n1 = Satisfied
CNC(=O)c1c(C)oc2cc(Oc3ncnc4cc(OC)c(OC)cc34)ccc12 = Satisfied
CC(=O)Nc1ccc(C(=O)Nc2ccccc2N)cc1 = Satisfied

INPUT: Lab log: compare recorded Z-AUC with 0.5; is it strictly lower for C=CC(=O)Nc1cccc(Nc2nc(Nc3ccc(Oc4ccnc(C(=O)NC)c4)cc3)ncc2F)c1 ?
OUTPUT: Satisfied

INPUT: Lab log: compare recorded Z-AUC with 0.5; is it strictly lower for CC(C)=CCC/C(C)=C/CC/C(C)=C/CSc1ccccc1C(=O)O ?
OUTPUT: Not satisfied

INPUT: Lab log: compare recorded Z-AUC with 0.5; is it strictly lower for O=C1NC(=O)C(c2c[nH]c3ccccc23)=C1c1c[nH]c2ccccc12 ?
OUTPUT: Not satisfied

INPUT: Lab log: compare recorded Z-AUC with 0.5; is it strictly lower for C[C@@H]1N=C(N)NC(N(C)C)=N1 ?
OUTPUT: Not satisfied

INPUT: Lab log: compare recorded Z-AUC with 0.5; is it strictly lower for CCC(=O)Nc1cccc(Oc2nc(Nc3ccc(N4CCN(C)CC4)cc3OC)ncc2Cl)c1 ?
OUTPUT: Satisfied

INPUT: Lab log: compare recorded Z-AUC with 0.5; is it strictly lower for Cc1ccc(NC(=O)Nc2nnc(Sc3ncnc4cc(OCCCN5CCOCC5)ccc34)s2)cc1 ?
OUTPUT: Satisfied

INPUT: Lab log: compare recorded Z-AUC with 0.5; is it strictly lower for COc1cc2nc(-c3cc(F)ccc3O)nc(N[C@@H]3CNC[C@H]3C(C)(C)O)c2cc1OC ?
OUTPUT: Satisfied

INPUT: Lab log: compare recorded Z-AUC with 0.5; is it strictly lower for C[C@@H]1CCNC(=O)c2cc3ccc(C(=O)Nc4nc5ccccc5n4CCCN(C)C)cc3n21 ?
OUTPUT: Satisfied

INPUT: Lab log: compare recorded Z-AUC with 0.5; is it strictly lower for COc1cc(F)ccc1-c1ncnc(Nc2cccc(CS(C)(=N)=O)c2)n1 (stereo unspecified) ?
OUTPUT: Satisfied

INPUT: Lab log: compare recorded Z-AUC with 0.5; is it strictly lower for CNC(=O)[C@H]1O[C@@H](n2cnc3c(NCc4cccc(I)c4)nc(Cl)nc32)[C@H](O)[C@@H]1O ?
OUTPUT: Not satisfied

INPUT: Lab log: compare recorded Z-AUC with 0.5; is it strictly lower for Cc1cc(/C=c2/sc3nc4ccccc4n3c2=O)c(C)n1-c1ccccc1 ?
OUTPUT: Satisfied

INPUT: Lab log: compare recorded Z-AUC with 0.5; is it strictly lower for COc1cc(N2CCN(C(C)=O)CC2)ccc1Nc1ncc(Cl)c(Nc2ccc(N3CCN(C(C)=O)CC3)cc2OC)n1 ?
OUTPUT: Not satisfied

INPUT: Lab log: compare recorded Z-AUC with 0.5; is it strictly lower for COc1ccc(CNC(=O)Nc2ncc([N+](=O)[O-])s2)cc1 ?
OUTPUT: Satisfied
